Assignment: determine reported ED50 for the given compounds.
- tested_system: Glutamate receptor ionotropic, AMPA (Mus musculus) (UniProt P23819+P23818+Q9Z2W8+Q9Z2W9)
- Sequence (P23818 whole entry, looked up): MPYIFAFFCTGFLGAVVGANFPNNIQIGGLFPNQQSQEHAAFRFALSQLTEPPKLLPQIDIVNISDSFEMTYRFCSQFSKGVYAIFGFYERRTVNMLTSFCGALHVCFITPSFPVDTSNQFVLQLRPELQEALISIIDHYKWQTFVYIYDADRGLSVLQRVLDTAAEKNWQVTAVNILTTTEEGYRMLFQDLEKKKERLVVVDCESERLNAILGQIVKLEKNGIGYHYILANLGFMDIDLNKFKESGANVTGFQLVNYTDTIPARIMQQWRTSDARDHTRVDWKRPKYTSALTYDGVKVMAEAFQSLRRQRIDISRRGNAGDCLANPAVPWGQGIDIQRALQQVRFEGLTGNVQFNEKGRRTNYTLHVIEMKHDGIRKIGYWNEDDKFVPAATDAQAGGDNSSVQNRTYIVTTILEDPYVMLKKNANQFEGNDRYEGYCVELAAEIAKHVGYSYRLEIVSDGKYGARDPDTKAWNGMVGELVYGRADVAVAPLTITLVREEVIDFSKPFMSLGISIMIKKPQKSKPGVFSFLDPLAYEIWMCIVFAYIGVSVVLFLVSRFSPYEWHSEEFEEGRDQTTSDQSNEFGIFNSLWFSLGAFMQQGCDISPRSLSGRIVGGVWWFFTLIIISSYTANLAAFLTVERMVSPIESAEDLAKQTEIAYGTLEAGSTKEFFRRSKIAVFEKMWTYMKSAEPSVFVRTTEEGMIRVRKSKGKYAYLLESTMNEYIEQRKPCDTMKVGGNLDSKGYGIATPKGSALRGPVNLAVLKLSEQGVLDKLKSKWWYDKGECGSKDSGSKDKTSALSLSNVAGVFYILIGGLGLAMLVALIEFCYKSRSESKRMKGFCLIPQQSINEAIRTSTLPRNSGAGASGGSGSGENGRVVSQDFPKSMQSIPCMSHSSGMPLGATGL
- Sequence (P23819 whole entry, looked up): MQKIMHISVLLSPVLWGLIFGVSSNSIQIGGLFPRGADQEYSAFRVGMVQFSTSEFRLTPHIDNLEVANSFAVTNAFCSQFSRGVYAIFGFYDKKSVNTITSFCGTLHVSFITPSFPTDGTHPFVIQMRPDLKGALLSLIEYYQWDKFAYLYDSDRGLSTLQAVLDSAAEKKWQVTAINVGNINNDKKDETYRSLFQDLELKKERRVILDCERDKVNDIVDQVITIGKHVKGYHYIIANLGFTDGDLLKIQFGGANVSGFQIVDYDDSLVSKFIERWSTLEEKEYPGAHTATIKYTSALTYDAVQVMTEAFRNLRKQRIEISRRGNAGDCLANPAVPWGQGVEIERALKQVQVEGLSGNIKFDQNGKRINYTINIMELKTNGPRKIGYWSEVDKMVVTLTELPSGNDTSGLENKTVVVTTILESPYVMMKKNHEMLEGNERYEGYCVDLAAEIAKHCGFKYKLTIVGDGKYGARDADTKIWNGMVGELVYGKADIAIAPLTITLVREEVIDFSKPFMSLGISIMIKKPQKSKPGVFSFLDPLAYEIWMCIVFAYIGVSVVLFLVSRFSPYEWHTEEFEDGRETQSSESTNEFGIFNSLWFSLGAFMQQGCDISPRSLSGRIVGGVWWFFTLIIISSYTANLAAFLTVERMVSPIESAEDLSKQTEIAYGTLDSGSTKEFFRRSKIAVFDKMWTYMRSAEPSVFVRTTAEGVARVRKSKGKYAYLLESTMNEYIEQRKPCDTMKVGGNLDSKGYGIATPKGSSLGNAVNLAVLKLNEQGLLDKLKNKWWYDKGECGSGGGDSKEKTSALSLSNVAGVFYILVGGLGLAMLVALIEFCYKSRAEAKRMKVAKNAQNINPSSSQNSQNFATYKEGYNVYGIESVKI
- Sequence (Q9Z2W8 whole entry, looked up): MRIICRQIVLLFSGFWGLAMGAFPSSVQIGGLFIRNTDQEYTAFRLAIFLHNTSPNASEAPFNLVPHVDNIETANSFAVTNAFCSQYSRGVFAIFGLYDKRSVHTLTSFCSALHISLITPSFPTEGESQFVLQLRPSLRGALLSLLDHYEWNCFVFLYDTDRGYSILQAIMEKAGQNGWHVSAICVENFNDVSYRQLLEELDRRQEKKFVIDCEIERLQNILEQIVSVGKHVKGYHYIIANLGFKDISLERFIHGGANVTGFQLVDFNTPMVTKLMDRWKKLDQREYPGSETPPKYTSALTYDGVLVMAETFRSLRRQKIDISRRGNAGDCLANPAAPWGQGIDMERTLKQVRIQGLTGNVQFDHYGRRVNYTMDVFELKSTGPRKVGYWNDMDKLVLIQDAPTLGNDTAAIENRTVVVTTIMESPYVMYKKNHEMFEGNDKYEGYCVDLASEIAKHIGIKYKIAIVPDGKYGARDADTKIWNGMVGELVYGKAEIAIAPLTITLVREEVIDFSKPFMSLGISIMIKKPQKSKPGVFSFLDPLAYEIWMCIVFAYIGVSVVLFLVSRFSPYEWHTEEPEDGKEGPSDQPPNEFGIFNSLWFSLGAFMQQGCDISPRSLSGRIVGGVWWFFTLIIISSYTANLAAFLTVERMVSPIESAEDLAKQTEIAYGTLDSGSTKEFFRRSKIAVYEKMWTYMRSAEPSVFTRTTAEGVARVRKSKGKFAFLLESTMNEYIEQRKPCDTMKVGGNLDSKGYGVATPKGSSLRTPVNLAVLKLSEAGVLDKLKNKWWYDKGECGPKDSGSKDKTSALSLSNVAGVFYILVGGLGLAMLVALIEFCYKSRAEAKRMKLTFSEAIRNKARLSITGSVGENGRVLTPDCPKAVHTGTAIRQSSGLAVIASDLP
- Sequence (Q9Z2W9 whole entry, looked up): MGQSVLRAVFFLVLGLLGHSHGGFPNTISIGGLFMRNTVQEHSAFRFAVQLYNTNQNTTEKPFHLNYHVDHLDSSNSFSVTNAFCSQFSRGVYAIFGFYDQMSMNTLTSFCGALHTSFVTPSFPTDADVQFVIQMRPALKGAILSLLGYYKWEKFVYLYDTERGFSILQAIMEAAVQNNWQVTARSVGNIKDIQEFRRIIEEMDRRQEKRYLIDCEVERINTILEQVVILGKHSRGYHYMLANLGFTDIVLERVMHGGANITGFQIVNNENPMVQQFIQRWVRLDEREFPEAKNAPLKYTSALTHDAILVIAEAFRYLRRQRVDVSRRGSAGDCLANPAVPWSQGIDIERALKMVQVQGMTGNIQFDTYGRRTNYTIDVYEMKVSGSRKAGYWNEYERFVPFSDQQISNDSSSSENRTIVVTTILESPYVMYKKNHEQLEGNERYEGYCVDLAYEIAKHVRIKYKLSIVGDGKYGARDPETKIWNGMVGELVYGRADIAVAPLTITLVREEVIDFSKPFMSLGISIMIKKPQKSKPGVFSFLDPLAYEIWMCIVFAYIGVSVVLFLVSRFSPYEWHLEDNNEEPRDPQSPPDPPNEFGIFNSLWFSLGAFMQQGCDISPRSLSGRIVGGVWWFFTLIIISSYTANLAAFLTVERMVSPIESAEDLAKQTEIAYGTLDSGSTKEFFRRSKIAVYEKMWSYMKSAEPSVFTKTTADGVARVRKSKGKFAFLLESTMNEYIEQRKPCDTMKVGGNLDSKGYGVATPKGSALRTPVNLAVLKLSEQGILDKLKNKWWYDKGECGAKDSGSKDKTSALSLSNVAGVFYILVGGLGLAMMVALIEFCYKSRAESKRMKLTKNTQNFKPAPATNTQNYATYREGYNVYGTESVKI
- test_details: In vivo anticonvulsant activity was measured as median effective dose required to prevent clonic phase of seizure in DBA/2 mice
- Type: functional, organism-based
Numbers only, in µmol/kg.

1) Oc1nnc(-c2ccccc2)c2cc3c(cc12)OCO3
36.7
2) CN1N=C(c2ccc(N)cc2)c2cc3c(cc2CC1=O)OCO3
41.1
3) COc1cc2c(cc1OC)C(c1ccc(F)cc1)=Nn1c(O)nnc1C2
32.1
4) COc1cc2c(cc1OC)C(c1cccc(N)c1)=NN(C)C(=O)C2
36.8

Task: Quick check: ED50 of `CNC(=O)N1N=C(c2ccc(N)cc2)c2cc3c(cc2CC1=O)OCO3` ?
Result: 12.4

###

Please go through the items and note down their ED50.
- tested_system: Glutamate receptor ionotropic, AMPA (Mus musculus) (UniProt P23819+P23818+Q9Z2W8+Q9Z2W9)
- test_details: In vivo anticonvulsant activity was measured as median effective dose required to prevent tonic phase of seizure in DBA/2 mice
- Type: functional, organism-based
Answers are plain numbers, in µmol/kg.

Examples with their reported ED50 follow.
1. COc1cc2c(cc1OC)C(c1ccc(N)cc1)=NN(C)C(=S)C2
20.3
2. COc1cc2c(cc1OC)C(c1ccccc1)=NN=C(S)C2
15
3. CNC(=O)N1N=C(c2ccc(N)cc2)c2cc3c(cc2CC1=O)OCO3
8.7
4. COc1ccc2c(c1)CC(=O)NN=C2c1ccccc1
64.8
5. COc1cc2c(cc1OC)C(c1ccccc1)=NN(C(C)=O)C(=O)C2
72.1

Task: Provide value of ED50 for this record tested with Glutamate receptor ionotropic, AMPA (Mus musculus) (UniProt P23819+P23818+Q9Z2W8+Q9Z2W9): `COc1cc2c(cc1OC)C(c1ccc(F)cc1)=Nn1c(O)nnc1C2`
Result: 21.8

###

For each of the molecules below, state its ED50.
- tested_system: Glutamate receptor ionotropic, AMPA (Mus musculus) (UniProt P23819+P23818+Q9Z2W8+Q9Z2W9)
- test_details: In vivo anticonvulsant activity was measured as median effective dose required to prevent tonic phase of seizure in DBA/2 mice
- Format: functional, organism-based
Give bare numbers, in µmol/kg.

1) COc1cc2c(cc1OC)C(c1cccc(N)c1)=NN(C)C(=O)C2
30.6
2) COc1cc2c(cc1OC)C(c1cccc(N)c1)=NNC(=O)C2
18.3
3) COc1cc2c(O)nnc(-c3cccc(N)c3)c2cc1OC
59.9
4) COc1cc2c(cc1OC)C(c1ccc(N)cc1)=Nn1cnnc1C2
48.3

Report ED50 for every entry below.
1. SC1=NN=C(c2ccccc2)c2cc3c(cc2C1)OCO3
2. COc1cc2c(cc1OC)C(c1ccc(Br)cc1)=NNC(=O)C2
3. COc1cc2c(O)nnc(-c3ccc(NC(C)=O)cc3)c2cc1OC
4. COc1cc2c(cc1OC)C(c1cccc([N+](=O)[O-])c1)=Nn1c(O)nnc1C2
5. COc1cc2c(cc1OC)C(c1ccccc1)=NN(C)C(=O)C2
6. COc1cc2c(cc1OC)C(c1ccc(Cl)cc1)=NNC(=O)C2
7. COc1cc2c(cc1OC)C(c1ccc(Br)cc1)=NN(C)C(=O)C2

Result:
18.8
82.5
48.8
43.2
26.7
75.3
38
